Target: Human GGT1 (hGGT) (Homo sapiens, UniProt P19440)
Sequence (P19440 381-569 limits assumed): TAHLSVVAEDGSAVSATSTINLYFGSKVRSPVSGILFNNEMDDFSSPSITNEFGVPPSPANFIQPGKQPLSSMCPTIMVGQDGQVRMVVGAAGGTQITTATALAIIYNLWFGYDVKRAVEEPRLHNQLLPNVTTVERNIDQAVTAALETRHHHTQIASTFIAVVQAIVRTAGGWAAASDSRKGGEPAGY
Sequence (P19440 27-380 limits assumed): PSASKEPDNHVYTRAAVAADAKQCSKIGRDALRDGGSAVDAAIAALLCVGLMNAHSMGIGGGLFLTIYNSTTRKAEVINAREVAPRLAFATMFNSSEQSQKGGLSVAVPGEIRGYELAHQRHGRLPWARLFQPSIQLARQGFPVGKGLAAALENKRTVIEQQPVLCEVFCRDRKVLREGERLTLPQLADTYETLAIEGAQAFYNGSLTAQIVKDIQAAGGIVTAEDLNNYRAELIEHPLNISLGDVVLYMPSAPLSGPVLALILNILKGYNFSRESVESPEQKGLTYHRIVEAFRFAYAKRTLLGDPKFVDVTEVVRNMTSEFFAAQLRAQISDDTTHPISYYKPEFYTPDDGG
Experiment: D-GpNA Hydrolysis Assay (release of pNA, 405 nm, pH 7.4)
Settings: read-out: D-GpNA Kii; Compound 20; Table 7
measured.property: pKi
Value format note: pKi is -log10 of concentration (mol/L); just state the number.

Record O=[N+]([O-])c1ccc(S(=O)(=O)Nc2nnc(Cc3ccc(Cl)c(Cl)c3)s2)cc1 [Compound 20] , field pKi: 4.11

###

Measured Ki by item
Target: hGGT (Homo sapiens)
Construct: lacking the transmembrane domain; made in house; host or cells: Pichia pastoris
Sequence (P19440 381-569 limits assumed): as the sequence (P19440 381-569 limits assumed) above
Sequence (P19440 27-380 limits assumed): as the sequence (P19440 27-380 limits assumed) above
Assay: L-Glutamate Release Assay (Hydrolysis of GSH)
Format: biochemical
Details: GSH hydrolysis; Table 4; read-out: GSH Kii
The reply should be a number in µM, with the unit left off.

Solved cases (2 shown):
compound | measure.unit | Ki
COc1ccc(Cc2nnc(NS(=O)(=O)c3ccccc3)s2)cc1 [Compound 1] | µM | 376
COc1ccc(Cc2nnc(NS(=O)(=O)c3ccc(N)cc3)s2)cc1 [Compound 21] | µM | 105

Turning now to a further compound:
Record COc1ccc(Cc2nnc(NS(=O)(=O)c3ccc(C)cc3)s2)cc1 [Compound 2] , field Ki: 506

###

Target: Human GGT1 (hGGT) (Homo sapiens, UniProt P19440)
Test: D-GpNA Hydrolysis Assay (release of pNA, 405 nm, pH 7.4)
Conditions: relative to OU749
Measured fold less effective than OU749 in inhibiting hydrolysis of D-GpNA by item

Solved cases (2 shown):
compound.structure.string | recorded.result
COc1ccc(Cc2nnc(NS(=O)(=O)c3ccc(NO)cc3)s2)cc1 | 2-5 fold
COc1ccc(Cc2nnc(NS(=O)(=O)c3ccc(C(C)(C)C)cc3)s2)cc1 | 2-5 fold

Turning now to a further molecule:
Record COc1ccc(Cc2nnc(NS(=O)(=O)c3cccc4ccccc34)s2)cc1 , field fold less effective than OU749 in inhibiting hydrolysis of D-GpNA: 2-5 fold

###

Target: Human GGT1 (hGGT) (Homo sapiens, UniProt P19440)
Test: L-GpNA Transpeptidation Assay with GlyGly as acceptor
Assay type: biochemical
Parameters: lacking the transmembrane domain; made in house; host or cells: Pichia pastoris
Conditions: Table 7; read-out: L-GpNA with GlyGly Kii
measured.property: pKi
Value format note: pKi is -log10 of concentration (mol/L); just state the number.

Record O=[N+]([O-])c1ccc(S(=O)(=O)Nc2nnc(Cc3ccc(Cl)cc3)s2)cc1 [Compound 16] , field pKi: 4.21

###

Target: Human GGT1 (hGGT) (Homo sapiens, UniProt P19440)
Assay: D-GpNA Hydrolysis Assay (release of pNA, 405 nm, pH 7.4)
Settings: Hydrolysis D-GpNA; Table 3
Threshold 8 mM/min/nM. V∞ (maximum rate at infinite activator) below it: y. V∞ (maximum rate at infinite activator) at it or above: n.

compound | qualitative.label
O=[N+]([O-])c1ccc(Cc2nnc(NS(=O)(=O)c3ccc([N+](=O)[O-])cc3)s2)cc1 [Compound 14] | y
O=[N+]([O-])c1ccc(S(=O)(=O)Nc2nnc(Cc3ccc(F)cc3)s2)cc1 [Compound 19] | y
O=[N+]([O-])c1ccc(S(=O)(=O)Nc2nnc(Cc3ccccc3)s2)cc1 [Compound 13] | n
Cc1ccc(Cc2nnc(NS(=O)(=O)c3ccc([N+](=O)[O-])cc3)s2)cc1 [Compound 17] | n
O=[N+]([O-])c1ccc(S(=O)(=O)Nc2nnc(Cc3cccc(Cl)c3)s2)cc1 [Compound 15] | y
Cc1cccc(Cc2nnc(NS(=O)(=O)c3ccc([N+](=O)[O-])cc3)s2)c1 [Compound 18] | y
O=[N+]([O-])c1ccc(S(=O)(=O)Nc2nnc(Cc3ccc(Cl)cc3)s2)cc1 [Compound 16] | y

Now turn to the next compound.
Dear colleague, could you confirm whether V∞ (maximum rate at infinite activator) of COc1ccc(Cc2nnc(NS(=O)(=O)c3ccc([N+](=O)[O-])cc3)s2)cc1 [Compound 11] falls below 8 mM/min/nM? Thanks. n
